Data origin, for the record: paper PMC11714206

Biological target: MyD88^TIR (Homo sapiens)
Construct: MyD88 (residues 148–296); 6xHis; made in house; host or cells: E. coli BL21 (DE3)
Sequence (Q99836 148-296): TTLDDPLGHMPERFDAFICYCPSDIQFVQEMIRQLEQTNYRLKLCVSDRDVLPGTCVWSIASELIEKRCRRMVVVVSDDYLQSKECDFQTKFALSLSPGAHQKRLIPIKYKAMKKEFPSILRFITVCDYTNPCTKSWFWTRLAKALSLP
Assay: T‐Surf phage library (P8 and P3) selection against MyD88^TIR, four rounds, NGS read counts
Type: binding
Details: P8_MyD88: rank by count after grouping
hey, just use T if measured Rank (after) is less than 400, otherwise F

// query I'd appreciate it if you could check whether WAQEQDGFWVRLIEAL has Rank (after) smaller than 400.
// result F

// query Identify whether the sequence YILYEDQTIKFVFRDFIQEL records Rank (after) below 400.
// result T

// query Please let me know if YASSSWALDELLQILHARELF shows Rank (after) below 400.
// result T

// query Would you kindly verify if Rank (after) of LTEEIVNHILKRLAEL is strictly less than 400?
// result T

// query API: query returns whether the sequence falls strictly under 400 in Rank (after). Query: DPQDLDWFYDRLLYSLHVTE
// result F

// query Regarding WALNELQQILHARELF , kindly confirm whether its Rank (after) is beneath 400.
// result F

// query I'd appreciate it if you could check whether DPQDLLRFYEHLVSLF has Rank (after) smaller than 400.
// result F

// query Is Rank (after) of AYILNFIKGNVMFEFL strictly below 400?
// result T

// query Please check: Rank (after) for DYASYDDNDYYWVTHVLLRHL , strictly under 400 or not?
// result F

// query Here's an entry: DFSHFWLFEARGDA . Is its Rank (after) below 400?
// result T

// query A record lists YATSSWALNELVYLIM . Is its Rank (after) below 400?
// result T

// query Problem: For the sequence YAASPWWFDELVTILG , is Rank (after) under 400?
// result F

// query Just wondering, is Rank (after) of YASSTWWLRELLQIA below 400?
// result T

// query Please state whether Rank (after) is below 400 for LGYRWLDGEYFGGIED
// result F

// query Hello, is Rank (after) of the following sequence strictly smaller than 400? LGYHWIAWECFVGIED
// result F

// query Criterion: Rank (after) strictly below 400. Is it met by SFSFPLDQLSYFLNLP ?
// result T

// query Does DWVWDYLLLSVFQTIFARRTE have Rank (after) strictly under 400?
// result F

// query Threshold test, Rank (after) < 400: VSSFISYLIAAFNRQG
// result T

// query Determine whether this sequence shows Rank (after) lower than 400 (ties excluded): DPQDLDCFYERLVSLL
// result T

// query Does the reported Rank (after) of PQDLDWFYERLVSLL stay below 400?
// result T

// query Could you please tell me whether Rank (after) recorded for LTDVANILGYHWIDWE is less than 400?
// result T

// query Regarding DYASSWWALEEMAKIM , kindly confirm whether its Rank (after) is beneath 400.
// result T

// query Is it true that Rank (after) reported for DLQDVGWFLSKLSQHI is less than 400?
// result T

// query Consider the sequence ELWVLRYLLPTLEEQQ . Is its Rank (after) strictly less than 400?
// result T

// query Just wondering, is Rank (after) of DVLYYALIDAGIRVFR below 400?
// result T
